The measurements presented in this section are drawn from paper PMC8126888.

Assay: in vitro
Conditions: human

>  <Compound>
C[S+]([O-])c1c(Cl)ccc2c1S(=O)(=O)N(Cc1ccccc1)CCO2 (stereo not shown)

>  <CC50 at 3 days>
> 64 µM

$$$$
>  <Compound>
COc1ccc(C#N)cc1S(=O)(=O)N(Cc1ccccc1)Cc1ccccc1

>  <CC50 at 3 days>
40.4 µM

$$$$
>  <Compound>
COc1ccc(S(C)(=O)=O)cc1S(=O)(=O)N(Cc1ccccc1)CC(C)(C)C

>  <CC50 at 3 days>
> 64 µM

$$$$
>  <Compound>
COc1ccc(OC)c(S(=O)(=O)N2CCc3ccccc3C2)c1

>  <CC50 at 3 days>
> 55.4 µM

$$$$
